Provenance of the data: paper PMC6039436

- Measurement protocol: Biodistribution in ddY mice
- Type: in vivo
- Reported conditions: i.v. co-injection, 4 h
Marks after values point to notes of the source that are not given here.
Measured Radioactivity in Muscle of individual entries

As a guide, the following entries are already answered.
COCCOc1ccc2c(c1)ncn2-c1ccc2c([77Br])ccc(N3CCC(N)CC3)c2n1 [[^77Br]2] | 0.44 (0.07) %injected dose/gram tissue
COCCOc1ccc2c(c1)ncn2-c1ccc2cccc(N3CCC(NC(=O)c4cccc([77Br])c4)CC3)c2n1 [[^77Br]3] | 0.57 (0.24) %injected dose/gram tissue

--- query ---
Measured Radioactivity in Muscle, COCCOc1ccc2c(c1)ncn2-c1ccc2cccc(N3CCC(NC(=O)c4cccc([125I])c4)CC3)c2n1 [[^125I]5, reference compound] : 0.16 (0.08)^* %injected dose/gram tissue

----------
- Measurement protocol: Biodistribution in ddY mice
- Type: in vivo
- Reported conditions: i.v. co-injection, 24 h
Marks after values point to notes of the source that are not given here.
Measured Radioactivity in Bone of individual entries

COCCOc1ccc2c(c1)ncn2-c1ccc2cccc(N3CCC(NC(=O)c4cccc([77Br])c4)CC3)c2n1 [[^77Br]3] | 1.32 (0.17) %injected dose/gram tissue

--- query ---
Measured Radioactivity in Bone, COCCOc1ccc2c(c1)ncn2-c1ccc2c([77Br])ccc(N3CCC(N)CC3)c2n1 [[^77Br]2] : 0.55 (0.10) %injected dose/gram tissue

----------
Measured Radioactivity in Small intestine of individual entries
- Measurement protocol: Biodistribution in ddY mice
- Format: in vivo
- Reported conditions: i.v. co-injection, 4 h
Marks after values point to notes of the source that are not given here.

COCCOc1ccc2c(c1)ncn2-c1ccc2cccc(N3CCC(NC(=O)c4cccc([77Br])c4)CC3)c2n1 [[^77Br]3] | 4.50 (2.02) %injected dose/gram tissue
COCCOc1ccc2c(c1)ncn2-c1ccc2cccc(N3CCC(NC(=O)c4cccc([125I])c4)CC3)c2n1 [[^125I]5, reference compound] | 1.32 (0.66)^* %injected dose/gram tissue
COCCOc1ccc2c(c1)ncn2-c1ccc2c([125I])ccc(N3CCC(N)CC3)c2n1 [[^125I]4, reference compound] | 4.98 (0.89) %injected dose/gram tissue

--- query ---
Measured Radioactivity in Small intestine, COCCOc1ccc2c(c1)ncn2-c1ccc2c([77Br])ccc(N3CCC(N)CC3)c2n1 [[^77Br]2] : 4.76 (0.89) %injected dose/gram tissue

----------
- Measurement protocol: Biodistribution in ddY mice
- Assay type: in vivo
- Reported conditions: i.v. co-injection, 4 h
- From the text: In this study, to minimize both the number of mice consumed in the experiment and the potential for experimental errors, we co-injected radiobrominated and radioiodinated compounds into mice[30],[31]. High radioactivity in the liver, small intestine, and large intestine was observed. […] Tissues in mice were resected and weighed. The radioactivity of the tissues was counted by a gamma counter and counts were corrected for background radiation. […]
Marks after values point to notes of the source that are not given here.
Readout kind: Radioactivity in Bone

As a guide, the following entries are already answered.
COCCOc1ccc2c(c1)ncn2-c1ccc2c([77Br])ccc(N3CCC(N)CC3)c2n1 [[^77Br]2] | 1.50 (1.27) %injected dose/gram tissue
COCCOc1ccc2c(c1)ncn2-c1ccc2cccc(N3CCC(NC(=O)c4cccc([77Br])c4)CC3)c2n1 [[^77Br]3] | 1.32 (0.12) %injected dose/gram tissue

--- query ---
Measured Radioactivity in Bone, COCCOc1ccc2c(c1)ncn2-c1ccc2c([125I])ccc(N3CCC(N)CC3)c2n1 [[^125I]4, reference compound] : 0.32 (0.08) %injected dose/gram tissue
